Recorded values, source ChEMBL document CHEMBL3297648.

# Procedure text: Antiproliferative activity against human PC3 cells assessed as inhibition of cell viability after 24 hrs by MTT assay
# Format: functional, cell-based
# Test conditions: PC-3, 24 h
pIC50: −log10 of the molar value.
Property name: pIC50

Cpd smiles | Property name | Operator symbol | Quantitative readout
C=C[C@]1(C)CC[C@H]2[C@]3(C)CCCC(C)(C)[C@H]3[C@@H]3C[C@@]2(O1)C(=O)O3 | pIC50 | = | 4.70
C=C[C@@](C)(O)CC[C@@H]1C(C)=CC[C@@H]2C(C)(C)CCC[C@@]12C | pIC50 | = | 4.58
CC(C)[C@H]1CC[C@]2(C)C[C@]3(O)C(=CC(=O)[C@H]3C)[C@@H](C)CC[C@@H]12 | pIC50 | < | 4.40

---

Readings of pIC50 for the listed compounds
# Procedure text: Antiproliferative activity against HBE cells assessed as inhibition of cell viability after 24 hrs by MTT assay
# Assay type: cell-based
# Test conditions: Homo sapiens
pIC50: −log10 of the molar value.

Compound | Operator symbol | pIC50
C=C[C@]1(C)CC[C@H]2[C@]3(C)CCCC(C)(C)[C@H]3[C@@H]3C[C@@]2(O1)C(=O)O3 | = | 4.27
CC(C)[C@H]1CC[C@]2(C)C[C@]3(O)C(=CC(=O)[C@H]3C)[C@@H](C)CC[C@@H]12 [ANADENSIN] | < | 4.40
C=C[C@@](C)(O)CC[C@@H]1C(C)=CC[C@@H]2C(C)(C)CCC[C@@]12C | = | 4.27

---

Readings of IC50 for the listed compounds
# Tested on: NCI-H292
# Procedure text: Antiproliferative activity against human NCI-H292 cells assessed as inhibition of cell viability after 24 hrs by MTT assay
# Type: functional, cell-based
# Test conditions: NCI-H292, 24 h

Cpd smiles | IC50 [µM]
CC(C)[C@H]1CC[C@]2(C)C[C@]3(O)C(=CC(=O)[C@H]3C)[C@@H](C)CC[C@@H]12 | 39.9
C=C[C@]1(C)CC[C@H]2[C@]3(C)CCCC(C)(C)[C@H]3[C@@H]3C[C@@]2(O1)C(=O)O3 | 10.7
C=C[C@@](C)(O)CC[C@@H]1C(C)=CC[C@@H]2C(C)(C)CCC[C@@]12C | 17.1
